Where these numbers come from: ChEMBL document CHEMBL1128519

# Test system: Candida albicans
# experiment: In vivo antifungal activity administered orally against Candida albicans infections in mice.
# Format: functional
# measurementParameters: po
Numbered stars: 1 amine (or outer) side, 2 acyl side, 3 side chain; on linkers, the order of the positions; unused ones are H or OH. Bridge positions count the residues as written; N and C are the ends. Square brackets hold non-standard residues; d marks the D form. Peptide text beside a SMILES is read from it. * marks the point of attachment. Orn(4R-OH,5R-OH) = O=C([C@H](C[C@@H](O)[C@@H](O)N[*:3])N[*:1])[*:2]; hTyr(3S-OH,4S-OH) = N[C@H](C(=O)O)[C@H](O)[C@@H](O)c1ccc(O)cc1; X7 = CCCCCCOc1ccc(-c2ccc(-c3ccc(C(=O)*)cc3)cc2)cc1; Pro(3S-OH,4S-Me) = C[C@H]1CN[C@H](C(=O)O)[C@H]1O; X14 = COc1ccc(C#Cc2ccc(-c3ccc(C(=O)*)cc3)cc2)cc1; X9 = CCCCCCCCCCOc1ccc2cc(C(=O)*)ccc2c1; Hyp = O=C(O)[C@@H]1C[C@@H](O)CN1
reportedEndpoint: ED50 (mg/kg)
Dear colleague, please return just the value in mg/kg, with no unit written.

Query: Which ED50 reading was recorded for the compound CCCCCCCCCCOc1ccc2cc(C(=O)N[C@H]3C[C@@H](O)[C@@H](O)NC(=O)[C@@H]4[C@@H](O)[C@@H](C)CN4C(=O)[C@H]([C@@H](C)O)NC(=O)[C@H]([C@H](O)[C@@H](O)c4ccc(O)cc4)NC(=O)[C@@H]4C[C@@H](O)CN4C(=O)[C@H]([C@@H](C)O)NC3=O)ccc2c1 (X9-[Orn(4R-OH,5R-OH)]T[Hyp][hTyr(3S-OH,4S-OH)]T[Pro(3S-OH,4S-Me)]; lactam 1-C) ?
Reply: 46.1

Query: // lookup ED50 for CCCCCCOc1ccc(-c2ccc(-c3ccc(C(=O)N[C@H]4C[C@@H](O)[C@@H](O)NC(=O)[C@@H]5[C@@H](O)[C@@H](C)CN5C(=O)[C@H]([C@@H](C)O)NC(=O)[C@H]([C@H](O)[C@@H](O)c5ccc(O)cc5)NC(=O)[C@@H]5C[C@@H](O)CN5C(=O)[C@H]([C@@H](C)O)NC4=O)cc3)cc2)cc1 (X7-[Orn(4R-OH,5R-OH)]T[Hyp][hTyr(3S-OH,4S-OH)]T[Pro(3S-OH,4S-Me)]; lactam 1-C)
Reply: 6.8

Query: Fill in the blank: the reported ED50 of COc1ccc(C#Cc2ccc(-c3ccc(C(=O)N[C@H]4C[C@@H](O)[C@@H](O)NC(=O)[C@@H]5[C@@H](O)[C@@H](C)CN5C(=O)[C@H]([C@@H](C)O)NC(=O)[C@H]([C@H](O)[C@@H](O)c5ccc(O)cc5)NC(=O)[C@@H]5C[C@@H](O)CN5C(=O)[C@H]([C@@H](C)O)NC4=O)cc3)cc2)cc1 (X14-[Orn(4R-OH,5R-OH)]T[Hyp][hTyr(3S-OH,4S-OH)]T[Pro(3S-OH,4S-Me)]; lactam 1-C) is ____.
Reply: 19
